B1: library; numbered along this chain (parent)
chain: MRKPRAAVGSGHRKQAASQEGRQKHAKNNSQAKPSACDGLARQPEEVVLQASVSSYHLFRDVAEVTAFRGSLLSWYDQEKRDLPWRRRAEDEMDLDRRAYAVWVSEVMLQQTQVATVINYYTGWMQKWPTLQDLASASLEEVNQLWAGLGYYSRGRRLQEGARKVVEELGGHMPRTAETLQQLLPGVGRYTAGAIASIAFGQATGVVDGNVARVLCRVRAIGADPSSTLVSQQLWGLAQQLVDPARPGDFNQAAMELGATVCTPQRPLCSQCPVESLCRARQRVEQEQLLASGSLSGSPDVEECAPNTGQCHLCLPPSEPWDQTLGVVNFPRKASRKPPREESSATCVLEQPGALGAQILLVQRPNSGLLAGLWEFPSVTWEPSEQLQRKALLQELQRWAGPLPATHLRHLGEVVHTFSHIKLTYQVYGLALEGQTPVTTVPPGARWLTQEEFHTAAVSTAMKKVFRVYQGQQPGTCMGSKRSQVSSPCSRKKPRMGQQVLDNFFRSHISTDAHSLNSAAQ

Variants of: B1
Assay: 8OG:A repair function score (normalized; synonymous = 0, nonsense = -1) (normalized log-likelihood score); higher = more repair activity (WT-like);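 note: cells sorted at 72 h after reporter transfection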
Conditions: with 8OG:A DNA repair reporter (GFP) in HEK-293 MUTYH KO cells
Is 8OG:A repair function score at least -0.09? Then Satisfied. If not, Not satisfied.

Recorded results for 3 variants are shown here.
S197A: Not satisfied
L257R: Not satisfied
D77R: Not satisfied

# bool: 8OG:A repair function score of V62R >= -0.09
Satisfied

Further, for K463S ?
Not satisfied

Further, for E395A ?
Not satisfied

Further, for G497I ?
Satisfied

Further, for E64Y ?
Not satisfied

Further, for V165W ?
Not satisfied

Further, for N143P ?
Not satisfied

Further, for H454R ?
Satisfied

Further, for R279W ?
Not satisfied

Further, for G479L ?
Satisfied

Further, for A212G ?
Not satisfied

Further, for T424Y ?
Not satisfied

Further, for V348W ?
Not satisfied

Further, for E433Y ?
Satisfied

Further, for S197K ?
Not satisfied

Just for reference, the supplement of paper PMC11908140 is where these values come from.
